B1: ANKRD40 (parent)
chain: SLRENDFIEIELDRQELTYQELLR

Variants of: B1
assay.method.text: protein stability index of a GFP-peptide fusion (GPS, HEK-293T) (PSI 1-6); higher = more stable;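 further: lentivirally expressed fusions sorted by FACS into six bins by GFP to DsRed ratio, PSI derived from sequencing read proportions per bin multiplied by bin number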
particulars: c terminus: a fixed tail appended
Label Satisfied when protein stability index is at or above 3; otherwise label Not satisfied.

(Q) Is it the case that SLRLNDFIEIELDRQELTYQELLR [E4L] has protein stability index reaching or exceeding 3?
(A) Not satisfied

(Q) Hi, just wondering whether SLRENDFIEIELDRQELTQQELLR [Y19Q] shows protein stability index of 3 or higher.
(A) Satisfied

(Q) Please tell me: is the variant SLRENDFIEFELDRQELTYQELLR [I10F] at or over 3 in terms of protein stability index?
(A) Satisfied

(Q) Is it the case that SLRENAFIEIELDRQELTYQELLR [D6A] has protein stability index reaching or exceeding 3?
(A) Not satisfied

(Q) # bool: protein stability index of SLRENDFIEICLDRQELTYQELLR [E11C] >= 3
(A) Not satisfied

(Q) Form field: protein stability index at least 3? Entry: SLRENDFIEIELDIQELTYQELLR [R14I]
(A) Not satisfied

(Q) Hi team, for DLRENDFIEIELDRQELTYQELLR [S1D] , is the recorded protein stability index at or above 3?
(A) Satisfied

(Q) Form field: protein stability index at least 3? Entry: SLRENDFIIIELDRQELTYQELLR [E9I]
(A) Not satisfied

(Q) Determine whether measured protein stability index meets or exceeds 3 for SLRGNDFIEIELDRQELTYQELLR [E4G]
(A) Not satisfied

(Q) Answer whether protein stability index of SLRENDFIEIELDRQELTYHELLR [Q20H] is greater than or equal to 3.
(A) Not satisfied

(Q) # bool: protein stability index of SLRENDFIHIELDRQELTYQELLR [E9H] >= 3
(A) Not satisfied

(Q) Tell me whether protein stability index is at least 3 here: SWRENDFIEIELDRQELTYQELLR [L2W]
(A) Not satisfied

(Q) Record SLREWDFIEIELDRQELTYQELLR [N5W] ; criterion: protein stability index no lower than 3. Met?
(A) Not satisfied

(Q) Quick check, protein stability index >= 3? ALRENDFIEIELDRQELTYQELLR [S1A]
(A) Not satisfied

(Q) Given ILRENDFIEIELDRQELTYQELLR [S1I] , state whether its protein stability index is at least 3.
(A) Not satisfied

(Q) Given SLRENIFIEIELDRQELTYQELLR [D6I] , state whether its protein stability index is at least 3.
(A) Not satisfied

(Q) Does the reported protein stability index for SLRENDFIEIELDRQELTYQILLR [E21I] fall at or above the 3 mark?
(A) Not satisfied

(Q) Could you verify whether the entry SLRENDFIEIELDRQELMYQELLR [T18M] shows protein stability index of no less than 3?
(A) Not satisfied

(Q) Reported protein stability index at or above 3? SLRENDFIEIELDRQELTYQELLA [R24A]
(A) Satisfied

(Q) Check if protein stability index >= 3 (inclusive). Item: SLRENDFIMIELDRQELTYQELLR [E9M]
(A) Not satisfied

(Q) Is it the case that SLRENDFIEIEPDRQELTYQELLR [L12P] has protein stability index reaching or exceeding 3?
(A) Satisfied
